# Assayed System: T1, VP1 pentamer of BKV genotype II (recombinant) (BK virus genotype II, UniProt P14996 30-300)
# T1 construct: also called GII; VP1 geno II pentamer; not shown: N-terminal His-tag of pESPRIT002; C-terminal biotin acceptor peptide (BAP) of pESPRIT002
# Assay Info: ELISA, coated VP1 pentamer
Measurement Type: EC50 (µg/mL)
Record the value in µg/mL, omitting the unit from your answer.

The following binders have reported results that may help.
Binder: antibody E6P5 (antibody, V domains shown) VH: EVQLVESGGGLVQPGRSLRLSCSASGFTFDDHAMHWVRQAPGKGLEWVAGINWNSASIVYADSVKGRFTISRDNVKNSLYLQMNSLRADDTALYYCAKDFGLWFGESRGIDAWGRGTTVTVSS VL: DIVMTQSPLSLPVTPGEPASISCRPSQSLLHSNGYNYLNWYLQKPGRSPQLLIYLGSNRASGVPDRFSGSGSGTDFTLKISRVEAEDVGIYYCMQALQTPITFGQGTRLEIK
EC50 (µg/mL): 0.6
--
Binder: antibody G8P7 (antibody, V domains shown) VH: QLQLQESGPGLVQPSETLSLTCTVSGGYISTSSYYWGWIRQPPGKGLEWIGSIEYSGSTYYNPSLKSRVTISVDTSKNQFSLKLSSVTAADTAVYYCASANSKYYDSGGYYAPGALDLWGQGTMVTVSS VL: EIVMTQSPATLSVSPGERATLSCRASQSVSSHLAWYQHKRGQAPRLLIYAASSRATGIPARFSGRGSGTEFTLTISSLQSEDFAVYYCQQYNNWPPGYSFGQGTKLEIK
EC50 (µg/mL): 25

I would be grateful if you could share the reported EC50 for antibody F4P5 (antibody, V domains shown) VH: EVQLVESGGGVVQPGRSLRLSCAASGFTFSNFGMHWVRQPPGKGLEWVAVISYDGSDKFYADSVKGRFTISRDNFKNTLYVQMNSLRAEDTAVYYCAKDRVRTKYYYDHSGPFDYWGRGTLVTVSS VL: SYELTQPPSVSVAPGQTARIACGGNNIGSKSVHWYQQRPGQAPVLVVYDDDDRPSGIPERFSGSNSGNTATLTISRVEAGDEADYFCQVWMTNSDRPVFGGGTKLTVL .
10

All figures here come from patent EP4659811A1.
